Data provenance is patent US10750743B2.

# System: ryegrass, It. (Italian ryegrass, Lolium multiflorum)
# protocol: Test A postemergence application, visual injury rating
# Type: in vivo
# assay-context: 125 g ai/ha, 0 to 100 scale, 0 no effect, 100 complete control
Record form. Attribute: Ryegrass, It. plant response rating. Fill in for each entry.
One number for each entry.

1. Cn1nc(Cl)c(O)c(-c2cccc3[nH]nnc23)c1=O	0
2. CCOC(=O)Oc1c(C)nn(C)c(=O)c1-c1c(CC)sc2ncccc12	0
3. COC(=O)Oc1c(C)nn(C)c(=O)c1-c1ccc(Cl)c2oc(C)cc12	30
4. Cc1nn(C)c(=O)c(-c2c(C)sc3ncccc23)c1O	0
5. Cc1cc2c(Cl)ccc(-c3c(OC(=O)c4ccccc4)c(C)nn(C)c3=O)c2o1	30

// input: 7 compounds below; output: Ryegrass, It. plant response rating for each
1. COC(=O)Oc1c(C)nn(C)c(=O)c1-c1ccc(Cl)c2ccsc12
2. Cc1nn(C)c(=O)c(-c2ccc(Cl)c3sc(Br)cc23)c1O
3. COc1ncc(-c2c(O)c(C)nn(C)c2=O)c2ccccc12
4. Cc1nn(C)c(=O)c(-c2c(C)sc3ncccc23)c1OC(=O)C1CC1
5. CCc1sc2ncccc2c1-c1c(OC(=O)C2CC2)c(C)nn(C)c1=O
6. COC(=O)Oc1c(C)nn(C)c(=O)c1-c1ccc(Cl)c2cc(C)oc12
7. COC(=O)Oc1c(C)nn(C)c(=O)c1-c1c(C)ccc2cc(C)oc12

OUT:
1. 90
2. 0
3. 90
4. 0
5. 0
6. 70
7. 100

// input: 4 compounds below; output: Ryegrass, It. plant response rating for each
1. Cc1ccc2ccoc2c1-c1c(O)c(C)nn(C)c1=O
2. COC(=O)Oc1c(C)nn(C)c(=O)c1-c1ccc(Cl)c2sccc12
3. CCC(=O)Oc1c(C)nn(C)c(=O)c1-c1cccc2sccc12
4. Cc1nn(C)c(=O)c(-c2c(C)sc3ncccc23)c1OC(=O)OC(C)C

OUT:
100
10
80
0

// input: 8 compounds below; output: Ryegrass, It. plant response rating for each
1. CCC(=O)Oc1c(C)nn(C)c(=O)c1-c1cccc2cc(C)oc12
2. Cc1nn(C)c(=O)c(-c2ccc(Cl)c3ccoc23)c1O
3. CC(=O)Oc1c(C)nn(C)c(=O)c1-c1c(C(F)(F)F)ccc2cc(C)oc12
4. CCC(=O)Oc1c(C)nn(C)c(=O)c1-c1c(C)ccc2cc(C)oc12
5. CCC(=O)Oc1c(C)nn(C)c(=O)c1-c1ccc(Cl)c2sccc12
6. Cc1cnc2sc(C)c(-c3c(OC(=O)C4CC4)c(C)nn(C)c3=O)c2c1
7. CC(=O)Oc1c(Cl)nn(C)c(=O)c1-c1cccc2cccnc12
8. Cn1nc(Cl)c(O)c(-c2ccc(F)c3ccoc23)c1=O

OUT:
80
50
30
80
10
30
90
100

// input: 4 compounds below; output: Ryegrass, It. plant response rating for each
1. Cc1nn(C)c(=O)c(-c2ccc(Cl)c3sccc23)c1O
2. CCC(=O)Oc1c(C)nn(C)c(=O)c1-c1c(C)ccc2sccc12
3. Cc1cc2c(-c3c(OC(=O)c4ccccc4)c(C)nn(C)c3=O)ccc(Cl)c2o1
4. CC(=O)Oc1c(Cl)nn(C)c(=O)c1-c1nccc2ccccc12

OUT:
1. 10
2. 100
3. 0
4. 40

// input: 5 compounds below; output: Ryegrass, It. plant response rating for each
1. CC(=O)Oc1c(C)nn(C)c(=O)c1-c1ccc(Cl)c2sccc12
2. Cc1nn(C)c(=O)c(-c2c(Br)ccc3c2cnn3C)c1O
3. CC(=O)Oc1c(C)nn(C)c(=O)c1-c1cncc2ccccc12
4. Cc1nc2c(-c3c(O)c(C)nn(C)c3=O)cccc2s1
5. CCOC(=O)Oc1c(C)nn(C)c(=O)c1-c1c(C)sc2ncccc12

OUT:
10
0
0
20
0

// input: 4 compounds below; output: Ryegrass, It. plant response rating for each
1. Cc1nn(C)c(=O)c(-c2ccc(Cl)c3ccsc23)c1O
2. Cc1cc2ccc(C(F)(F)F)c(-c3c(O)c(C)nn(C)c3=O)c2o1
3. CC(=O)Oc1c(C)nn(C)c(=O)c1-c1ccc(Cl)c2cc(C)oc12
4. CCOC(=O)Oc1c(C)nn(C)c(=O)c1-c1cccc2sccc12

OUT:
1: 70; 2: 40; 3: 90; 4: 70
